Origin of measurements: PubChem BioAssay (NCI)

System: MOLT-4 leukemia
Experiment: NCI tumour cell line growth inhibition, 48 h; in the data active means GI50 below about 0.43 µM; inactive means the rest
Outcomes you can answer with include only these: 1 (active), -1 (inactive)

Answered cases to consult:
COC(=O)C1=Nc2ccc(F)cc2/C1=C/c1sc(=S)[nH]c1O | 1
CCN(CCNc1ccc(C)c2sc3cc(Cl)ccc3c(=O)c12)CC(C)(C)O | -1
CCN(CC)CCCNc1c2ccc(Cl)cc2nc2ccc(OC)cc12 | 1
O=C(Nc1ccc(Br)cc1)Nc1cccc(Br)c1 | -1
Cc1ccc(O)cc1Nc1ccnc2cc(-c3ccccn3)ccc12 | -1
Cc1ccc(NC(=O)c2ccc(NC3=C(Cl)C(=O)N(Cc4ccccc4)C3=O)cc2)cc1Cl | -1
CC(C)C/C(=N\NC(=O)c1ccncc1)c1cc(Cl)ccc1O | 1
CC1(C)CC(O)CC(C)(C)N1.CC1(C)CC(O)CC(C)(C)N1.CC1(C)CC(O)CC(C)(C)N1.CC1(C)CC(O)CC(C)(C)N1.Cl.[Ti] | -1
O=S(=O)(NCCCNc1nccc(-c2c(-c3cccc(F)c3)nc3occn23)n1)c1cccc2ccccc12 | -1
O=C1C2C(C(=O)N1CC[Se][Se]CCN1C(=O)C3C(C1=O)[C@H]1C=C[C@@H]3C1)[C@H]1C=C[C@@H]2C1 (some centres not stated) | 1

-- ask Could you check what this test reported for CC1=NN(c2nc(N)nc(/C=C\c3ccccc3)n2)C(C)(C)C1 ?
-- reply -1

-- ask Note, next up: CN(c1ccc(NC(=O)NCCN2CCOCC2)cc1)c1ccnc(Nc2ccc(CS(C)(=O)=O)cc2)n1
-- reply -1

-- ask Note, next up: Cc1ccc(NC2=CC(=O)C(=O)c3ccccc32)c(C)c1
-- reply -1

-- ask Note, next up: CC1(C)N=C(N)N=C(N)N1c1ccc(OCCCCNC(=O)Nc2cccc(S(=O)(=O)F)c2)c(Cl)c1
-- reply -1

-- ask Note, next up: O=C1c2ccccc2-c2c1c1ccc([N+](=O)[O-])cc1c(=O)n2CCCCl
-- reply -1
